Test system: COLO 205 colon
protocol description: NCI-60 one-dose screen, 48 h
settings: 10 µM unless noted
Compounds without any hit were thinned out: in the full panel of roughly 83,000, 20% have a hit. Activity calls are given as the source filed them. Rule for the calls: active = growth percent below 10; inactive = the rest.
Parameter call: string, one of active, inactive

# count of solved cases: 5
Task: In this assay, the call recorded for O=C(Nc1cccc(-n2ccc3c(NC(=O)c4ccccc4)nccc32)c1)c1cccc(C(F)(F)F)c1 was what?
Result: active

Task: Entry O=C1COc2ccccc2C(=O)N1CCCCN1CCCCC1 please
Result: inactive

Task: Entry [2H]c1nc(Nc2ncc(F)c(-c3cc(F)c4nc(C)n(C(C)C)c4c3)n2)c([2H])c([2H])c1CN1CCN(CC)CC1 please
Result: inactive

Task: Entry CCN(CC)CCC(C(=O)O)(c1ccccc1)c1ccccc1 please
Result: inactive

Task: Entry CS(=O)(=O)OCC(COS(C)(=O)=O)C(c1ccccc1)c1ccccc1 please
Result: inactive

Turning now to a further record.
Task: In this assay, the call recorded for O=C1C(Cl)=C(Nc2cccc3cc4ccccc4nc23)C(=O)c2ccccc21 was what?
Result: inactive
